A collection of molecules and their measured Average of 2 trials SEPTTR-184 1DP
# Test system: Zymoseptoria tritici (SEPTTR-184)
# experiment.description: Efficacy of target gene fragments (MgCytB dsRNA tiles) on wheat plants, SEPTTR-184
# Format: in vivo
# Set-up: scale not given here
# stated.conditions: 200 ppm; 1DP (preventative)
Give your answer as a number; write no unit.

// known answers, use as guide
INSERT INTO results (molecule, numeric_readout) VALUES
  ('MgCytB-T7: 221 bp dsRNA of Zymoseptoria CytB region T7, location 947-1167 (SEQ ID NO:10) (nucleic acid, listed as Zymoseptoria tritici, complementary strand of dsRNA) GATTACAGTTTAGACCTTTAAGCAAGATCACATTTTACATATTTGTTGCTAACTTCTTAGTATTAATGCAATTAGGTGCTAATCACGTTGAGTCACCATTTATAGAATTTGGGCAAATTAGTACAGTACTGTACTTTTCACATTTCTTAATCATAGTGCCTCTAGTAAGCTTAATCGAGAATACTTTAGTGGATATGCACTTAAACAACACAATAACGTAA', 75),
  ('MgCytB-T3: 116 bp dsRNA of Zymoseptoria CytB region 3, location 279-394 (SEQ ID NO:6) (nucleic acid, listed as Zymoseptoria tritici, long dsRNA, chemistry not given here, further chemistry not given here) TTACCTGCACGTGGGTAGAGGGTTATACTACGGGTCATACAAAGCCCCTAGAACATTAACATGAACAATCGGTACTATAATACTAGTTCTGATGATGGCAACCGCATTCTTAGGGT', 74);

Task: What measured Average of 2 trials SEPTTR-184 1DP goes with MgCytB-T2: 203 bp dsRNA of Zymoseptoria CytB region 2, location 603-805 (SEQ ID NO:5) (nucleic acid, listed as Zymoseptoria tritici, complementary strand of dsRNA) ACACGATACAGCGGGTTCAGGAAATCCTTTAGGTGTATCAGGTAACTACGATAGATTACCATTCGCCCCTTACTTTATATTCAAAGATTTAATAACAATATTTTTATTCATTATAGTGTTATCAATATTTATTTTCTTTATGCCTAACGTTTTAGGTGACAGCGAGAATTATGTTATGGCTAACCCTATGCAAACTCCACCTG ?
Output: 77

Task: Which measured Average of 2 trials SEPTTR-184 1DP value corresponds to MgCytB-T5: 172 bp dsRNA of Zymoseptoria CytB region T5, location 173-344 (SEQ ID NO:8) (nucleic acid, listed as Zymoseptoria tritici, complementary strand of dsRNA) TATCTGAAGCATTTAACTCAGTTGAACACATAATGAGAGATGTAAACAATGGATGACTTATACGTTATCTTCACTCTAATACTGCTTCAGCTTTCTTCTTTTTAGTTTACCTGCACGTGGGTAGAGGGTTATACTACGGGTCATACAAAGCCCCTAGAACATTAACATGAAC ?
Output: 76

Task: Reported Average of 2 trials SEPTTR-184 1DP for MgCytB-T4: 219 bp dsRNA of Zymoseptoria CytB region T4, location 1-219 (SEQ ID NO:7) (nucleic acid, listed as Zymoseptoria tritici, complementary strand of dsRNA) ATGAGGATTTGGAAGAGTCACCCTTTATTTAGTCTGGTTAATGGTTATCTTATCGATTCACCACAACCAAGTAATCTAAGCTATCTATGAAATTTCGGTTCATTACTGGGATTTTGTCTTGTAATACAAATCGTTACTGGTGTTACACTTGCTATGCATTATAACCCTAGCGTATCTGAAGCATTTAACTCAGTTGAACACATAATGAGAGATGTAAAC : what is it?
Output: 74

Task: Please look up its Average of 2 trials SEPTTR-184 1DP: MgCytB-T1: 267 bp dsRNA of Zymoseptoria CytB region 1, location 364-630 (SEQ ID NO:4) (nucleic acid, listed as Zymoseptoria tritici, complementary strand of dsRNA) GTTCTGATGATGGCAACCGCATTCTTAGGGTATGTATTACCTTATGGTCAAATGTCTTTATGAGGAGCAACAGTTATAACTAACTTATTGAGTGCAATACCTTGAGTTGGACAAGACATAGTTGAATTCGTATGAGGTGGATTTTCTGTTAACAATGCAACATTGAACAGATTCTTTGCTCTACATTTCGTTTTACCGTTTGTGTTAGCTGCATTAGTTTTAATGCATCTAATAGCTTTACACGATACAGCGGGTTCAGGAAATCCT
Output: 80

Task: # input molecule: MgCytB-T6: 258 bp dsRNA of Zymoseptoria CytB region T6, location 775-1032 (SEQ ID NO:9) (nucleic acid, listed as Zymoseptoria tritici, complementary strand of dsRNA) GTTATGGCTAACCCTATGCAAACTCCACCTGCTATAGTGCCTGAATGATATTTATTACCTTTCTACGCTATACTAAGATCAATACCTAACAAACTATTAGGTGTGATCGCAATGTTTTCTGCTATATTGATTATAATGATAATGCCAATTACCGATTTAGGTAGAAGTAGAGGATTACAGTTTAGACCTTTAAGCAAGATCACATTTTACATATTTGTTGCTAACTTCTTAGTATTAATGCAATTAGGTGCTAATCAC ; wanted: its Average of 2 trials SEPTTR-184 1DP
Output: 72

Value source: patent US10392620B2
